- Tested on: MCF7
- Method summary: Proliferative effect in human MCF7 BUS cells assessed as ratio of increase in cell number in drug treated to control
- Assay type: functional
Collected Ratio values appear next to each entry.
Parameter measured: Ratio

Compound	Target	Test result
C/C(=C/c1ccc(O)cc1)C(C)Cc1ccc(O)cc1 (centres undefined)	MCF7	6.2
C[C@H](Cc1ccc(O)cc1)[C@H](C)Cc1ccc2c(c1)OCO2	MCF7	5.8
CCO[C@@H](c1ccc2c(c1)OCO2)[C@@H](C)[C@H](C)Cc1ccc2c(c1)OCO2	MCF7	6.9
C[C@H](Cc1ccc2c(c1)OCO2)[C@H](C)C(=O)c1ccc(O)cc1	MCF7	4.51
COc1ccc(CCC(=O)c2c(O)cc(O)cc2OC)cc1	MCF7	6.6
COc1cc(C(=O)[C@@H](C)[C@H](C)Cc2ccc3c(c2)OCO3)ccc1O	MCF7	4
C[C@@H]([C@H](C)Cc1ccc2c(c1)OCO2)[C@@H](O)c1ccc2c(c1)OCO2	MCF7	4.4
Oc1ccc2c(c1)O[C@H](c1ccc3c(c1)OCO3)CC2	MCF7	5.7
COc1cc(O)cc(O)c1C(=O)CCc1ccc2c(c1)OCO2	MCF7	2.5
C/C=C/c1cc(OC)c2c(c1)[C@@H](C)[C@H](c1ccc(O)c(OC)c1)O2	MCF7	2.8
C[C@H](Cc1ccc2c(c1)OCO2)[C@@H](C)Cc1ccc2c(c1)OCO2	MCF7	1.9
C[C@@H]1[C@@H](c2ccc(O)cc2)c2cc(O)ccc2C[C@H]1C	MCF7	6.4
C[C@@H]1[C@@H](c2ccc3c(c2)OCO3)c2cc3c(cc2C[C@H]1C)OCO3	MCF7	2.2
C[C@]12CC[C@@H]3c4ccc(O)cc4CC[C@H]3[C@@H]1CC[C@@H]2O	MCF7	8
